experiment: Toxicity liver stage against HepG2, at 10uM; format: cell-based; design: test concentration 10 uM, cell line HepG2-A16-CD81EGFP; settings: human, HepG2-A16-CD81EGFP cells; read-out: INHIBITION
Each entry below carries its recorded cytotoxicity at 10 µM.
QUANTITY KIND: cytotoxicity at 10 µM (%)

{"COMPOUND": "CC(C)(C)c1cc2ncn(CCCN3CCCCC3CO)c(=O)c2s1 (stereo unspecified)", "QUANTITY KIND": "cytotoxicity at 10 µM", "QUANTITATIVE RESULT": -5.39}
{"COMPOUND": "Cc1ncc(CN(C)CC(O)c2cccc(C(F)(F)F)c2)s1 (stereo unspecified)", "QUANTITY KIND": "cytotoxicity at 10 µM", "QUANTITATIVE RESULT": 1.86}
{"COMPOUND": "CN(C)c1ncccc1CNc1snc(Cl)c1C#N", "QUANTITY KIND": "cytotoxicity at 10 µM", "QUANTITATIVE RESULT": -5.1}
{"COMPOUND": "CN(C)c1ncc(-c2cc(C(=O)O)n(CC3CC3)c2)cn1", "QUANTITY KIND": "cytotoxicity at 10 µM", "QUANTITATIVE RESULT": -9.23}
{"COMPOUND": "CCc1cc(NCC(O)CN2CCCCC2)ncn1 (stereo unspecified)", "QUANTITY KIND": "cytotoxicity at 10 µM", "QUANTITATIVE RESULT": -0.714}
{"COMPOUND": "CC(C)S(=O)(=O)N1CCCC(c2nnc(Cn3ccnc3)n2C)C1 (stereo unspecified)", "QUANTITY KIND": "cytotoxicity at 10 µM", "QUANTITATIVE RESULT": -2.83}

###

experiment: Toxicity liver stage against HepG2, at 10uM; assay type: cell-based; design: test concentration 10 uM, cell line HepG2-A16-CD81EGFP; conditions: human, HepG2-A16-CD81EGFP cells; read-out: INHIBITION
QUANTITY KIND: cytotoxicity at 10 µM (%)

{"MOLECULE": "O=C(c1ccnnc1)N1CCN2C[C@H](OCc3cccnc3)C[C@H]2C1", "QUANTITY KIND": "cytotoxicity at 10 µM", "QUANTITATIVE RESULT": -72.4}
{"MOLECULE": "O=C(C1CCOC1)N1CCN(Cc2ccncc2)c2ncccc2C1 (centres undefined)", "QUANTITY KIND": "cytotoxicity at 10 µM", "QUANTITATIVE RESULT": 0.617}
{"MOLECULE": "Cc1ccc(NCc2cc(C#N)ccc2F)cc1-n1nnnc1C", "QUANTITY KIND": "cytotoxicity at 10 µM", "QUANTITATIVE RESULT": -1.66}
{"MOLECULE": "Cc1cc(=O)n(CCNC(=O)c2ccccc2Cl)cn1", "QUANTITY KIND": "cytotoxicity at 10 µM", "QUANTITATIVE RESULT": -5.07}
{"MOLECULE": "O=C(CCC1CCCC1)NCCn1nc(C2CCNC2)c2cccnc21 (centres undefined)", "QUANTITY KIND": "cytotoxicity at 10 µM", "QUANTITATIVE RESULT": -2.83}
{"MOLECULE": "COc1ccc(F)cc1S(=O)(=O)N1CCN(CCn2ccnc2)CC1", "QUANTITY KIND": "cytotoxicity at 10 µM", "QUANTITATIVE RESULT": -7.72}
{"MOLECULE": "CC(Nc1nccc(CCC(F)(F)F)n1)c1nc(-c2ccncc2)no1 (centres undefined)", "QUANTITY KIND": "cytotoxicity at 10 µM", "QUANTITATIVE RESULT": 4.74}
{"MOLECULE": "CC1CCc2[nH]c(=O)c(C(=O)N3CCc4ccccc4C3)cc2C1 (centres undefined)", "QUANTITY KIND": "cytotoxicity at 10 µM", "QUANTITATIVE RESULT": -6.77}
{"MOLECULE": "CC(C)NC(=O)N1C[C@@H](F)[C@@H](OCc2nc3ccccc3o2)C1", "QUANTITY KIND": "cytotoxicity at 10 µM", "QUANTITATIVE RESULT": 8.16}
{"MOLECULE": "O=C(Cn1ccc2ccccc21)Nc1cc(N2CCCC2)ncn1", "QUANTITY KIND": "cytotoxicity at 10 µM", "QUANTITATIVE RESULT": 4.24}
{"MOLECULE": "COc1ccc(OCC(C)NS(C)(=O)=O)cc1 (centres undefined)", "QUANTITY KIND": "cytotoxicity at 10 µM", "QUANTITATIVE RESULT": 16.6}
{"MOLECULE": "COCCOc1ncccc1C(=O)Nc1c(C)cnn1CC1CC1", "QUANTITY KIND": "cytotoxicity at 10 µM", "QUANTITATIVE RESULT": 3.36}
{"MOLECULE": "CN(C)CCn1ccc(NC(=O)NC(C)(C)c2nccs2)n1", "QUANTITY KIND": "cytotoxicity at 10 µM", "QUANTITATIVE RESULT": 3.92}
{"MOLECULE": "Cc1nc(C)n(CC2CCCN(CC(=O)Nc3nncs3)C2)n1 (centres undefined)", "QUANTITY KIND": "cytotoxicity at 10 µM", "QUANTITATIVE RESULT": -3.79}
{"MOLECULE": "Cc1cc(NCc2ccccc2CN2CCCCC2)n2ncnc2n1", "QUANTITY KIND": "cytotoxicity at 10 µM", "QUANTITATIVE RESULT": -1.86}
{"MOLECULE": "Cc1noc(C)c1CN1CCC(c2ccnn2CCO)CC1", "QUANTITY KIND": "cytotoxicity at 10 µM", "QUANTITATIVE RESULT": -9.73}
{"MOLECULE": "Cc1cc(NCCCc2c(C)noc2C)nc(N)n1", "QUANTITY KIND": "cytotoxicity at 10 µM", "QUANTITATIVE RESULT": 12}
{"MOLECULE": "Cc1nn(CC(C)C)c(N(C)C)c1CNCc1cc2ccccc2[nH]1", "QUANTITY KIND": "cytotoxicity at 10 µM", "QUANTITATIVE RESULT": -2.77}
{"MOLECULE": "Cc1nn(C)c(Cl)c1C1CCCN1C(=O)c1ccc(C(N)=O)cn1 (centres undefined)", "QUANTITY KIND": "cytotoxicity at 10 µM", "QUANTITATIVE RESULT": -32}
{"MOLECULE": "COc1cc(OC)cc(C2(O)CCN(Cc3ncc(C)o3)CC2)c1", "QUANTITY KIND": "cytotoxicity at 10 µM", "QUANTITATIVE RESULT": 17}
{"MOLECULE": "Cc1ccc(N2C[C@@H]3CN(Cc4ccoc4)CCO[C@@H]3C2)nn1", "QUANTITY KIND": "cytotoxicity at 10 µM", "QUANTITATIVE RESULT": -12.8}
{"MOLECULE": "N#Cc1cc(F)c(NCCCOCC2CCOC2)c(F)c1 (centres undefined)", "QUANTITY KIND": "cytotoxicity at 10 µM", "QUANTITATIVE RESULT": 6.43}
{"MOLECULE": "Cn1c(CN2CCOCC2)nnc1C1CCCN(CC(N)=O)C1 (centres undefined)", "QUANTITY KIND": "cytotoxicity at 10 µM", "QUANTITATIVE RESULT": 5.23}
{"MOLECULE": "Cc1oc(-c2nc(C#N)c(NC3CC3)o2)cc1S(=O)(=O)N1CCCC1", "QUANTITY KIND": "cytotoxicity at 10 µM", "QUANTITATIVE RESULT": -9.95}
